# Lookup of reported In Vitro RBC MIC keyed by entry
- Tested on: murine red blood cells
- Assay Procedure: Red blood cell hemolysis
- Assay type: cell-based, mouse
- Method: Selectivity of cyclic peptides for bacterial over mammalian cells was evaluated by measuring red blood cell hemolytic activities as described in Tosteson, M. T. Holmes, S. J., Razin, M. and Tosteson, D. C. Melittin Lysis of Red Cells, J. Membrane Biol. 87, 35-44(1985). Heparinized murine blood was centrifuged at 1000×g for 10 minutes. The supernatant and the buffy coat were removed. […] Aliquots of the supernatant were diluted 2 times with saline solution and the absorbance was measured at 560 nm.
Non-standard residues stand in square brackets, D forms with d. Residues, ends and D or L forms follow the SMILES beside them.
Quick reminder: number only, in µg/mL, skip the unit.

Sample records with In Vitro RBC MIC:
- Compound: "CC(C)C[C@H]1NC(=O)[C@H](Cc2c[nH]c3ccccc23)NC(=O)[C@@H](CCCCN)NC(=O)[C@H](CO)NC(=O)[C@@H](CCCCN)NC(=O)[C@H](Cc2c[nH]c3ccccc23)NC(=O)[C@@H](CC(C)C)NC(=O)[C@H](Cc2c[nH]c3ccccc23)NC1=O [SEQ ID NO:12, D-Lys-Ser-D-Lys-Trp-D-Leu-Trp-D-Leu-Trp] (cyclo([dK]S[dK]W[dL]W[dL]W))"
  Study System: "murine red blood cells"
  Number: 100
- Compound: "CC(C)C[C@H]1NC(=O)[C@H](Cc2c[nH]c3ccccc23)NC(=O)[C@@H](CCCCN)NC(=O)[C@H](CCCNC(=N)N)NC(=O)[C@@H](CCCNC(=N)N)NC(=O)[C@H](Cc2c[nH]c3ccccc23)NC(=O)[C@@H](CC(C)C)NC(=O)[C@H](Cc2c[nH]c3ccccc23)NC1=O [SEQ ID NO:18] (cyclo([dR]R[dK]W[dL]W[dL]W))"
  Study System: "murine red blood cells"
  Number: 50
- Compound: "CC(C)C[C@H]1NC(=O)[C@H](Cc2c[nH]c3ccccc23)NC(=O)[C@@H](CCCNC(=N)N)NC(=O)[C@H](CCC(N)=O)NC(=O)[C@@H](CCCCN)NC(=O)[C@H](Cc2c[nH]c3ccccc23)NC(=O)[C@@H](CC(C)C)NC(=O)[C@H](Cc2c[nH]c3ccccc23)NC1=O [SEQ ID NO:8] (cyclo([dK]Q[dR]W[dL]W[dL]W))"
  Study System: "murine red blood cells"
  Number: 40

// next entry
// query In Vitro RBC MIC value for entry CC(C)C[C@H]1NC(=O)[C@H](CCCCN)NC(=O)[C@@H](CCCCN)NC(=O)[C@H](Cc2c[nH]c3ccccc23)NC(=O)[C@@H](CC(C)C)NC(=O)[C@H](Cc2c[nH]c3ccccc23)NC1=O [SEQ ID NO:26, cyclo-(D-Lys-Lys-D-Leu-Trp-D-Leu-Trp)] (cyclo(K[dL]W[dL]W[dK]))
80
